# Test system: NCI-H23 lung
# method notes: NCI tumour cell line growth inhibition, 48 h
Give TGI for every item shown.

Consider the worked cases shown below.
molecule: COC(=O)[C@@H](C)C[C@H](Cc1ccccc1)NC(=O)c1csc([C@@H](C[C@H](C(C)C)N(C)C(=O)[C@@H](NC(=O)[C@H]2CCCCN2C)C(C)C)OC(C)=O)n1
subject of test: NCI-H23 lung
value type: TGI
reading: > 25 µM
--
molecule: Nc1c(Cl)c([N+](=O)[O-])cc2c1OCCCCO2
subject of test: NCI-H23 lung
value type: TGI
reading: > 100 µM
--
molecule: Cc1ccc(C(=O)NC2CCCCC2)cc1-c1ccc(C(=O)NCC2CC2)cc1
subject of test: NCI-H23 lung
value type: TGI
reading: > 25 µM
--
molecule: N#CC1=C(N)Nc2nc3ccccc3n2C1c1ccccc1 (centres undefined)
subject of test: NCI-H23 lung
value type: TGI
reading: > 100 µM
--
molecule: COc1ccc(F)cc1C(=O)c1cnc(NC2CCN(S(C)(=O)=O)CC2)nc1N
subject of test: NCI-H23 lung
value type: TGI
reading: 16.7 µM
--
molecule: O=C(CC(=O)C(F)(F)F)c1csc2ccccc12
subject of test: NCI-H23 lung
value type: TGI
reading: > 100 µM

# map each molecule to its TGI
1. O=C(NN1C(=O)c2ccccc2C1=O)c1ccccc1Nc1ccccc1C(=O)NN1C(=O)c2ccccc2C1=O
2. CCO/C(O)=C(/C(=N)N1CCCC1)C(=O)Nc1ccc(Cl)cc1
3. COC(=O)N/N=C(\C)C(CN1CCOCC1)C(c1ccccc1)c1cc2ccccc2oc1=O (centres undefined)

1: > 100 µM; 2: > 100 µM; 3: > 100 µM
